IC50 values, listed per item
- System: E. coli BW25113 ΔtolC growth inhibition, OD615
- protocolDetails: growth inhibitors of E. coli tolC mutant, dose response, strain BW25113 ΔtolC::kan (AID 617);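 also: growth read after 20 h at 37 °C with compound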

CC1CCCc2sc3nc(NCc4ccco4)n4ncnc4c3c21 (stereo unspecified) | 11.6 µM
CN1CCN(CC(=O)N2CCn3c4c(c5cc(C6CCCCC6)ccc53)CCCC42)CC1 (stereo unspecified) | 66.7 µM
Cc1ccc(C2CC(c3cccc(Br)c3)Nc3nnnn32)cc1 (stereo unspecified) | 13 µM
O=C(Nc1nc(-c2cc(Cl)sc2Cl)cs1)c1cccs1 | 1.69 µM
COc1ccc(S(=O)(=O)Nc2ccccc2C(=O)NCc2ccco2)cc1Br | 9.63 µM

The reported value for CCOC(=O)c1ccc(-n2[nH]c(-c3ccccc3)cc2=O)cc1 in terms of IC50 is 8.26 µM

The reported value for Cc1cc(Cl)ccc1OCC(=O)Nc1ccccc1N1CCOCC1 in terms of IC50 is 8.64 µM

The reported value for Cc1cccc(S(=O)(=O)Nc2nc3ccccc3nc2NCc2ccco2)c1 in terms of IC50 is 6.92 µM

The reported value for COc1cccc(-c2cc(C(=O)N3CC4(C)CC3CC(C)(C)C4)no2)c1 (stereo unspecified) in terms of IC50 is 11 µM

The reported value for CCn1c(=O)c(C(=O)Nn2c(C)nc3ccccc3c2=O)c(O)c2ccccc21 in terms of IC50 is 3.26 µM

The reported value for COc1ccc(Cl)cc1CN1CCN(c2nc(C)cc(C)c2C#N)CC1 in terms of IC50 is 13.2 µM
